- TARGET: Alpha-1A adrenergic receptor (Rattus norvegicus)
- Sequence (P43140 whole entry): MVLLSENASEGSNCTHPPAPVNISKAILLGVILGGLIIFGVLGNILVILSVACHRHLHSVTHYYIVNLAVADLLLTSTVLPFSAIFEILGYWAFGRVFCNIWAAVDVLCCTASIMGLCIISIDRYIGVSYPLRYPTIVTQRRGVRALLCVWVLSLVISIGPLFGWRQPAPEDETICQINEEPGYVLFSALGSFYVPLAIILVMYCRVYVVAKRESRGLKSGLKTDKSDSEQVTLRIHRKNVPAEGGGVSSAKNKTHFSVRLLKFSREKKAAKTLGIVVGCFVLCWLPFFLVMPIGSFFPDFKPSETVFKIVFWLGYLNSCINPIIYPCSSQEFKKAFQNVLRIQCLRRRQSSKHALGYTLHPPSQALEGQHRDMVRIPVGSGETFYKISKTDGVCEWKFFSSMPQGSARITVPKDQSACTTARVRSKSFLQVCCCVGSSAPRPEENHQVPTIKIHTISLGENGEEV
- ASSAY_REMARKS: Antagonist affinity [non competitive (irreversible)] at alpha-1A-adrenoceptors on isolated prostatic Vas deferens from rat
pIC50: −log10 of the molar value.
OBSERVABLE: pIC50

I have this compound here, `COc1cc2nc(N3CCN(C(=O)c4ccccc4CNCCCCCCNCCSSCCNCCCCCCNCc4ccccc4C(=O)N4CCN(c5nc(N)c6cc(OC)c(OC)cc6n5)CC4)CC3)nc(N)c2cc1OC` , and I need its recorded pIC50. 5.30

(A) COc1cc2nc(N(C)CCCCCCN(C)C(=O)c3ccccc3CNCCCCCCNCCSSCCNCCCCCCNCc3ccccc3C(=O)N(C)CCCCCCN(C)c3nc(N)c4cc(OC)c(OC)cc4n3)nc(N)c2cc1OC
(B) COc1cc2nc(N(C)CCCCCCN(C)C(=O)c3ccc(CNCCCCCCNCCSSCCNCCCCCCNCc4ccc(C(=O)N(C)CCCCCCN(C)c5nc(N)c6cc(OC)c(OC)cc6n5)cc4)cc3)nc(N)c2cc1OC
Min pIC50? A | B Mark your answer with the label of the selected entry. B
(B: 5.33, A: 5.73)

* * *

Consider the following pKb values measured on Alpha-1A adrenergic receptor (Rattus norvegicus).
OBSERVABLE: pKb

I have this molecule here, `COc1cc2nc(N3CCN(C(=O)c4cccc(C(F)(F)F)c4)CC3)nc(N)c2cc1OC` , and I need its recorded pKb. 7.49

I have this molecule here, `COc1cc2nc(N(C)CCCCCCN(C)C(=O)c3ccccc3CNCCCCCCNCCCCCCNCCCCCCNCc3ccccc3C(=O)N(C)CCCCCCN(C)c3nc(N)c4cc(OC)c(OC)cc4n3)nc(N)c2cc1OC` , and I need its recorded pKb. 8.17

I have this molecule here, `COc1cc2nc(N3CCN(C(=O)c4ccccc4)CC3)nc(N)c2cc1OC` , and I need its recorded pKb. 7.66

I have this molecule here, `COc1ccc(C(=O)N2CCN(c3nc(N)c4cc(OC)c(OC)cc4n3)CC2)cc1` , and I need its recorded pKb. 8.46

I have this molecule here, `COc1cc2nc(N(C)CCCCCCN(C)C(=O)c3ccc(CNCCCCCCNCCCCCCNCCCCCCNCc4ccc(C(=O)N(C)CCCCCCN(C)c5nc(N)c6cc(OC)c(OC)cc6n5)cc4)cc3)nc(N)c2cc1OC` , and I need its recorded pKb. 8.53

I have this molecule here, `COc1cc2nc(N3CCN(C(=O)c4ccc(C(F)(F)F)cc4)CC3)nc(N)c2cc1OC` , and I need its recorded pKb. 7.43

I have this molecule here, `COc1cc2nc(N3CCN(C(=O)c4cccc(CNCCCCCCNCCCCCCNCCCCCCNCc5cccc(C(=O)N6CCN(c7nc(N)c8cc(OC)c(OC)cc8n7)CC6)c5)c4)CC3)nc(N)c2cc1OC` , and I need its recorded pKb. 7.29

I have this molecule here, `COc1cc2nc(N3CCN(C(=O)c4ccccc4C)CC3)nc(N)c2cc1OC` , and I need its recorded pKb. 6.97

I have this molecule here, `COc1cc2nc(N3CCN(C(=O)c4ccc(C)cc4)CC3)nc(N)c2cc1OC` , and I need its recorded pKb. 7.96

I have this molecule here, `COc1cc2nc(N3CCN(C(=O)c4ccc(C=O)cc4)CC3)nc(N)c2cc1OC` , and I need its recorded pKb. 7.59

I have this molecule here, `COc1cc2nc(N3CCN(C(=O)c4cccc(C)c4)CC3)nc(N)c2cc1OC` , and I need its recorded pKb. 8.49

I have this molecule here, `COc1cc2nc(N3CCN(C(=O)c4ccco4)CC3)nc(N)c2cc1OC` , and I need its recorded pKb. 8.99

I have this molecule here, `COc1cc2nc(N3CCN(C(=O)c4ccccc4C(F)(F)F)CC3)nc(N)c2cc1OC` , and I need its recorded pKb. 6.43

I have this molecule here, `COc1cc2nc(N3CCN(C(=O)c4ccccc4OC)CC3)nc(N)c2cc1OC` , and I need its recorded pKb. 7.34

I have this molecule here, `COc1cc2nc(N(C)CCCCCCN(C)C(=O)c3cccc(CNCCCCCCNCCCCCCNCCCCCCNCc4cccc(C(=O)N(C)CCCCCCN(C)c5nc(N)c6cc(OC)c(OC)cc6n5)c4)c3)nc(N)c2cc1OC` , and I need its recorded pKb. 8.48

I have this molecule here, `COc1cc2nc(N3CCN(C(=O)c4cccc(C=O)c4)CC3)nc(N)c2cc1OC` , and I need its recorded pKb. 7.79

I have this molecule here, `COc1cc2nc(N3CCN(C(=O)c4ccccc4CNCCCCCCNCCCCCCNCCCCCCNCc4ccccc4C(=O)N4CCN(c5nc(N)c6cc(OC)c(OC)cc6n5)CC4)CC3)nc(N)c2cc1OC` , and I need its recorded pKb. 7.74

I have this molecule here, `COc1cc2nc(N3CCN(C(=O)c4ccc(CNCCCCCCNCCCCCCNCCCCCCNCc5ccc(C(=O)N6CCN(c7nc(N)c8cc(OC)c(OC)cc8n7)CC6)cc5)cc4)CC3)nc(N)c2cc1OC` , and I need its recorded pKb. 6.97

I have this molecule here, `COc1cc2nc(N3CCN(C(=O)c4ccccc4C=O)CC3)nc(N)c2cc1OC` , and I need its recorded pKb. 6.94

I have this molecule here, `COc1cccc(C(=O)N2CCN(c3nc(N)c4cc(OC)c(OC)cc4n3)CC2)c1` , and I need its recorded pKb. 7.87

* * *

- TARGET: Alpha-1B adrenergic receptor (Rattus norvegicus) (UniProt P15823)
- Sequence (P15823 whole entry): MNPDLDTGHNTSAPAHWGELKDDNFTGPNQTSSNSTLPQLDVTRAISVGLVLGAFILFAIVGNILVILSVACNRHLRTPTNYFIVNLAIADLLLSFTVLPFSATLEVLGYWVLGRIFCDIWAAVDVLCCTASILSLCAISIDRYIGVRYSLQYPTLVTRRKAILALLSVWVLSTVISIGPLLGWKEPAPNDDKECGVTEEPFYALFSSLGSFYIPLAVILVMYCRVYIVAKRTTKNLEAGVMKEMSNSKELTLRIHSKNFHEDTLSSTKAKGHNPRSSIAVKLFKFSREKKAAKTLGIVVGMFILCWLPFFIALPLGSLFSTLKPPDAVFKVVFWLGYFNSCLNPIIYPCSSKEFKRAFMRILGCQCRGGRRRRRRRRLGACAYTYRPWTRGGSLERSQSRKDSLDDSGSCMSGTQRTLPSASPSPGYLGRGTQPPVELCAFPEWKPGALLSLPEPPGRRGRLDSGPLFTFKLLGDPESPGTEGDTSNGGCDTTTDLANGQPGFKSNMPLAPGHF
- DETAILS: Spleen
- Description: Non competitive irreversible antagonism at alpha-1B-adrenergic receptors on isolated spleen from rat.
OBSERVABLE: pKb

I have this compound here, `COc1cc2nc(N3CCN(C(=O)c4ccc(C(F)(F)F)cc4)CC3)nc(N)c2cc1OC` , and I need its recorded pKb. 7.45

I have this compound here, `COc1cc2nc(N3CCN(C(=O)c4ccccc4C(F)(F)F)CC3)nc(N)c2cc1OC` , and I need its recorded pKb. 6.55

I have this compound here, `COc1cc2nc(N(C)CCCCCCN(C)C(=O)c3ccccc3CNCCCCCCNCCCCCCNCCCCCCNCc3ccccc3C(=O)N(C)CCCCCCN(C)c3nc(N)c4cc(OC)c(OC)cc4n3)nc(N)c2cc1OC` , and I need its recorded pKb. 7.22

I have this compound here, `COc1cc2nc(N3CCN(C(=O)c4ccccc4C=O)CC3)nc(N)c2cc1OC` , and I need its recorded pKb. 6.5

* * *

- TARGET: UniProt P15823
- DETAILS: Spleen
OBSERVABLE: pKb

I have this molecule here, `COc1cccc(C(=O)N2CCN(c3nc(N)c4cc(OC)c(OC)cc4n3)CC2)c1` , and I need its recorded pKb. 7.84

I have this molecule here, `COc1cc2nc(N3CCN(C(=O)c4cccc(C(F)(F)F)c4)CC3)nc(N)c2cc1OC` , and I need its recorded pKb. 7.16

I have this molecule here, `COc1cc2nc(N3CCN(C(=O)c4ccccc4CNCCCCCCNCCCCCCNCCCCCCNCc4ccccc4C(=O)N4CCN(c5nc(N)c6cc(OC)c(OC)cc6n5)CC4)CC3)nc(N)c2cc1OC` , and I need its recorded pKb. 6.8

I have this molecule here, `COc1cc2nc(N3CCN(C(=O)c4ccccc4OC)CC3)nc(N)c2cc1OC` , and I need its recorded pKb. 6.77

I have this molecule here, `COc1cc2nc(N3CCN(C(=O)c4ccc(C)cc4)CC3)nc(N)c2cc1OC` , and I need its recorded pKb. 7.67

I have this molecule here, `COc1cc2nc(N(C)CCCCCCN(C)C(=O)c3ccc(CNCCCCCCNCCCCCCNCCCCCCNCc4ccc(C(=O)N(C)CCCCCCN(C)c5nc(N)c6cc(OC)c(OC)cc6n5)cc4)cc3)nc(N)c2cc1OC` , and I need its recorded pKb. 7.56

I have this molecule here, `COc1cc2nc(N3CCN(C(=O)c4cccc(CNCCCCCCNCCCCCCNCCCCCCNCc5cccc(C(=O)N6CCN(c7nc(N)c8cc(OC)c(OC)cc8n7)CC6)c5)c4)CC3)nc(N)c2cc1OC` , and I need its recorded pKb. 6.5

* * *

- TARGET: Alpha-1B adrenergic receptor (Rattus norvegicus) (UniProt P15823)
- DETAILS: Spleen
OBSERVABLE: pKb

I have this compound here, `COc1cc2nc(N3CCN(C(=O)c4cccc(C=O)c4)CC3)nc(N)c2cc1OC` , and I need its recorded pKb. 6.92

I have this compound here, `COc1cc2nc(N3CCN(C(=O)c4cccc(C)c4)CC3)nc(N)c2cc1OC` , and I need its recorded pKb. 8.12

I have this compound here, `COc1cc2nc(N3CCN(C(=O)c4ccc(C=O)cc4)CC3)nc(N)c2cc1OC` , and I need its recorded pKb. 6.95

I have this compound here, `COc1cc2nc(N(C)CCCCCCN(C)C(=O)c3cccc(CNCCCCCCNCCCCCCNCCCCCCNCc4cccc(C(=O)N(C)CCCCCCN(C)c5nc(N)c6cc(OC)c(OC)cc6n5)c4)c3)nc(N)c2cc1OC` , and I need its recorded pKb. 7.41

I have this compound here, `COc1cc2nc(N3CCN(C(=O)c4ccccc4C)CC3)nc(N)c2cc1OC` , and I need its recorded pKb. 7.33

I have this compound here, `COc1cc2nc(N3CCN(C(=O)c4ccccc4)CC3)nc(N)c2cc1OC` , and I need its recorded pKb. 7.44

I have this compound here, `COc1ccc(C(=O)N2CCN(c3nc(N)c4cc(OC)c(OC)cc4n3)CC2)cc1` , and I need its recorded pKb. 7.74

I have this compound here, `COc1cc2nc(N3CCN(C(=O)c4ccc(CNCCCCCCNCCCCCCNCCCCCCNCc5ccc(C(=O)N6CCN(c7nc(N)c8cc(OC)c(OC)cc8n7)CC6)cc5)cc4)CC3)nc(N)c2cc1OC` , and I need its recorded pKb. 7.16
